Target: T1, EsCas13d, nuclease-dead (Eubacterium siraeum, UniProt B0MS50, R295A;H300A;R849A;H854A)
T1 sequence: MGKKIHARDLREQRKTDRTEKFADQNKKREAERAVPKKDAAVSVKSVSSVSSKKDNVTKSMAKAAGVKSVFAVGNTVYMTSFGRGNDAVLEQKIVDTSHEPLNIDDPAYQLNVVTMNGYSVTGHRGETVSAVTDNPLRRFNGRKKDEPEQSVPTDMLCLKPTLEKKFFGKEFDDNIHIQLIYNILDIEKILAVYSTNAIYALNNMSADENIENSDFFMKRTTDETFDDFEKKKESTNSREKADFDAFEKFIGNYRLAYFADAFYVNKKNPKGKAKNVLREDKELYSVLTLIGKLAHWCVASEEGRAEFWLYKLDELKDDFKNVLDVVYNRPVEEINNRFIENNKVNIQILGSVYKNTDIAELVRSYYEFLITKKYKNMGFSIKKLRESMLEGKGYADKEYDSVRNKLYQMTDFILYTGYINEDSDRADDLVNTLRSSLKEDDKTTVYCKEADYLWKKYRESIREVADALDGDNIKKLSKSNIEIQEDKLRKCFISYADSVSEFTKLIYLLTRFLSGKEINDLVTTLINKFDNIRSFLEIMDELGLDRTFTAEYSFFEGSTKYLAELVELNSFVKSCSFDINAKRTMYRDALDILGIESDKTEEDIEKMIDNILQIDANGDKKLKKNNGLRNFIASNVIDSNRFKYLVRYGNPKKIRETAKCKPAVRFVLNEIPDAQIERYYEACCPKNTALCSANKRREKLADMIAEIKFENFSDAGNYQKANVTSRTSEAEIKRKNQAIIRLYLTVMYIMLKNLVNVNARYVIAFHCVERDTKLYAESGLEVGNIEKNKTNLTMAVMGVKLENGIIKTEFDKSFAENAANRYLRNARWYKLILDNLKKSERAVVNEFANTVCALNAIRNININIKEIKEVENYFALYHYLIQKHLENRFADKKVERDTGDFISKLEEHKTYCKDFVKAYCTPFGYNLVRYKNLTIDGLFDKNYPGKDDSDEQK
Assay: crRNA (strand 1, pre-loaded); Mg2+; 40 mM Tris-HCl pH 7.5, 150 mM NaCl, 6 mM MgCl2, 1 mM DTT, 0.1% Tween-20, 0.2 mg/ml BSA; 25 C; 10 min per concentration, then washed
Settings: tags: His6-TwinStrep-SUMO cleaved; N-terminal SNAP kept (SNAP-Surface 488); label: 3' end held by stalled T7 RNA polymerase
assay.endpoint: pKd
# log scale: pKd equals minus log10 of the concentration in mol/L

Dear colleague, I am looking for the recorded pKd of the following binder: target 1 insC 3' of 19,insA 3' of 15 (mixed) RNA 1: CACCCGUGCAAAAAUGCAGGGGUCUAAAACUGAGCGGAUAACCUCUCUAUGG RNA 2: GGGAAUGGAUCCACAUCUACGAAUUCGUACCAUCAGAGAAGGUUAUCCGCUCACCGAGAUCGGAAGAGCACACGU
7.44

Dear colleague, I am looking for the recorded pKd of the following binder: target 2 MT 5'PFS AGU 3'PFS CUU (mixed) RNA 1: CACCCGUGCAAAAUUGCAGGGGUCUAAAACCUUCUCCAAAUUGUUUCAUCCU RNA 2: GGGAAUGGAUCCACAUCUACGAAUUCAGUAGGAUGAAACAAUUUGGAGAAGCUUAGAUCGGAAGAGCACACGU
7.62

Dear colleague, I am looking for the recorded pKd of the following binder: target 1 MT 5'PFS UCC 3'PFS UUU (mixed) RNA 1: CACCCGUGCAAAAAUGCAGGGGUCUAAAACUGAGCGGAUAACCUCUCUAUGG RNA 2: GGGAAUGGAUCCACAUCUACGAAUUCUCCCCAUAGAGAGGUUAUCCGCUCAUUUAGAUCGGAAGAGCACACGU
7.96

Dear colleague, I am looking for the recorded pKd of the following binder: target 2 MT 5'PFS GCA 3'PFS UGC (mixed) RNA 1: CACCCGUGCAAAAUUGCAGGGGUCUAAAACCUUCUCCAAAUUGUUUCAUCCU RNA 2: GGGAAUGGAUCCACAUCUACGAAUUCGCAAGGAUGAAACAAUUUGGAGAAGUGCAGAUCGGAAGAGCACACGU
7.90

Dear colleague, I am looking for the recorded pKd of the following binder: target 3 C1A,G14U (mixed) RNA 1: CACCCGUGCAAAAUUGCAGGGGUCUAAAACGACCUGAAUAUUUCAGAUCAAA RNA 2: GGGAAUGGAUCCACAUCUACGAAUUCGUUUUUGAUCUUAAAUAUUCAGGUAUGCAGAUCGGAAGAGCACACGU
7.10

Dear colleague, I am looking for the recorded pKd of the following binder: target 1 insG 3' of 11,insG 3' of 4 (mixed) RNA 1: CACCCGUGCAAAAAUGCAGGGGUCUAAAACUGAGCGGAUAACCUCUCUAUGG RNA 2: GGGAAUGGAUCCACAUCUACGAAUUCGUACCAUAGAGAGGUGUAUCCGCGUCACCGAGAUCGGAAGAGCACACGU
7.27

Dear colleague, I am looking for the recorded pKd of the following binder: target 2 MT 5'PFS CGC 3'PFS AGU (mixed) RNA 1: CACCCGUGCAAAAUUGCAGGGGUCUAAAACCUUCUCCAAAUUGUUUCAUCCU RNA 2: GGGAAUGGAUCCACAUCUACGAAUUCCGCAGGAUGAAACAAUUUGGAGAAGAGUAGAUCGGAAGAGCACACGU
8.37

Dear colleague, I am looking for the recorded pKd of the following binder: target 1 insU 3' of 20,insC 3' of 8 (mixed) RNA 1: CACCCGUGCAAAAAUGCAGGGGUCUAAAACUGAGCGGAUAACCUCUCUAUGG RNA 2: GGGAAUGGAUCCACAUCUACGAAUUCGUACCAUUAGAGAGGUUAUCCCGCUCACCGAGAUCGGAAGAGCACACGU
7.72

Dear colleague, I am looking for the recorded pKd of the following binder: target 1 complement block 4-8 (mixed) RNA 1: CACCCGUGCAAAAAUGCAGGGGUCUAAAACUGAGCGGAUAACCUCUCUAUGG RNA 2: GGGAAUGGAUCCACAUCUACGAAUUCGUACCAUAGAGAGGUUAAGGCGUCACCGAGAUCGGAAGAGCACACGU
8.02

Dear colleague, I am looking for the recorded pKd of the following binder: target 1 A1G,G13A (mixed) RNA 1: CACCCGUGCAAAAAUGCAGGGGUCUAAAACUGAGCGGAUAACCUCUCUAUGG RNA 2: GGGAAUGGAUCCACAUCUACGAAUUCGUACCAUAGAGAAGUUAUCCGCUCGCCGAGAUCGGAAGAGCACACGU
8.21

Dear colleague, I am looking for the recorded pKd of the following binder: target 1 insG 3' of 21,insG 3' of 3 (mixed) RNA 1: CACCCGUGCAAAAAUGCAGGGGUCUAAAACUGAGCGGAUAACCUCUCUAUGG RNA 2: GGGAAUGGAUCCACAUCUACGAAUUCGUACCGAUAGAGAGGUUAUCCGCUGCACCGAGAUCGGAAGAGCACACGU
7.37

Dear colleague, I am looking for the recorded pKd of the following binder: target 1 insU 3' of 13,insG 3' of 4 (mixed) RNA 1: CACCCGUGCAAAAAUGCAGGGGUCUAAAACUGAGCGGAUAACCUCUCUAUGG RNA 2: GGGAAUGGAUCCACAUCUACGAAUUCGUACCAUAGAGAGUGUUAUCCGCGUCACCGAGAUCGGAAGAGCACACGU
7.85

Dear colleague, I am looking for the recorded pKd of the following binder: target 1 MT 5'PFS GGA 3'PFS UCU (mixed) RNA 1: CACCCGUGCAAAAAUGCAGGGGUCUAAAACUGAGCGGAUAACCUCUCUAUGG RNA 2: GGGAAUGGAUCCACAUCUACGAAUUCGGACCAUAGAGAGGUUAUCCGCUCAUCUAGAUCGGAAGAGCACACGU
7.87

Dear colleague, I am looking for the recorded pKd of the following binder: target 1 insC 3' of 20,insC 3' of 20 (mixed) RNA 1: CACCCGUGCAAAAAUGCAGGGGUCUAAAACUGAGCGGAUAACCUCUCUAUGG RNA 2: GGGAAUGGAUCCACAUCUACGAAUUCGUACCACCUAGAGAGGUUAUCCGCUCACCGAGAUCGGAAGAGCACACGU
7.35
